# pIC50 per entry
biological target: aggrecanase-1 (Homo sapiens, UniProt O75173); assay: Aggrecanase-1 inhibitory action (Particle Assay, GAG release from aggrecan-containing polyacrylamide particles); assay type: biochemical; settings: aggrecanase-1 inhibitory action; read-out: IC50 AG1 (Experimental Example 1)
Sequence (O75173 213-837, species assumed): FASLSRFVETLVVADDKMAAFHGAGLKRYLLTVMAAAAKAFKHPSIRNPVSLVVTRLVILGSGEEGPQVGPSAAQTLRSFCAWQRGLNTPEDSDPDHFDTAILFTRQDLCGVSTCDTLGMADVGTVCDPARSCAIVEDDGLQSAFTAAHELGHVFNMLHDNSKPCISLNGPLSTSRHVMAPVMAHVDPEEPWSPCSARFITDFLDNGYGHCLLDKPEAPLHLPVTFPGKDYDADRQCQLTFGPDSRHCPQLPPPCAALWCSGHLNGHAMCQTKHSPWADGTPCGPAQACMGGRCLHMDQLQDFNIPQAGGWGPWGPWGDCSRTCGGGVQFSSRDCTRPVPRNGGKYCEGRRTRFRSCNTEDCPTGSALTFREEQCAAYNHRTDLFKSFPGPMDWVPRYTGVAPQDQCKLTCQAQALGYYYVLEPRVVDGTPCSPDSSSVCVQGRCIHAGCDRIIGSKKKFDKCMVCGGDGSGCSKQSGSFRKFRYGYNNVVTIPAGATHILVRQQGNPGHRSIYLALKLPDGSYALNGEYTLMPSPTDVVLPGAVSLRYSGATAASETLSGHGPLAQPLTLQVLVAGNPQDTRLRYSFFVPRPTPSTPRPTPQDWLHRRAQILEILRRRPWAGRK
pIC50: −log10 of the molar value.

These solved cases illustrate the format of a correct answer.
compound | experimental_value
Nc1cccc([C@H]2C[C@@]2(NS(=O)(=O)c2ccc(-c3ccc(Cl)cc3)s2)C(=O)O)c1 | > 7.00
O=C(c1cccc(Cl)c1)N1CCN(S(=O)(=O)NC2(C(=O)O)CC2c2ccccc2)CC1 (stereo not drawn) | ≤ 5.00
O=C(O)C1(NS(=O)(=O)c2ccc(-c3ccc(Cl)c(Cl)c3)s2)CC1c1ccccc1 (stereo not drawn) | > 6.00
Cn1nc(C(F)(F)F)cc1-c1ccc(S(=O)(=O)NC2(C(=O)O)CC2c2ccccc2)s1 (stereo not drawn) | ≤ 5.00
CCC1(c2ccccc2)CC1(NS(=O)(=O)c1ccc2c(c1)Cc1cc(F)ccc1-2)C(=O)O (stereo not drawn) | > 6.00
O=C(O)[C@]1(NS(=O)(=O)c2ccc(-c3cc(CF)on3)cc2)C[C@@H]1c1ccccc1 | ≤ 6.00
Cc1ccc(-c2ccc(S(=O)(=O)NC3(C(=O)O)CC3c3ccccc3)s2)cc1 (stereo not drawn) | > 6.00
O=C(c1cccc(C2CC2(NS(=O)(=O)c2ccc(-c3ccc(Cl)cc3)s2)C(=O)O)c1)N1CCOCC1 (stereo not drawn) | > 7.00
Cc1nc(-c2ccc(S(=O)(=O)NC3(C(=O)O)CC3c3ccccc3)s2)co1 (stereo not drawn) | ≤ 5.00
O=C(O)[C@@]1(NS(=O)(=O)c2ccc3c(c2)Cc2cc(Br)ccc2-3)C[C@H]1c1ccccc1 | > 6.00

Param item = COC(=O)Nc1cccc(C2CC2(NS(=O)(=O)c2ccc(-c3ccc(Cl)cc3)cc2)C(=O)O)c1 (stereo not drawn) ; retrieve measured pIC50.
> 6.00

Recorded pIC50 of O=C(NCCC(F)(F)F)c1ccc(S(=O)(=O)NC2(C(=O)O)CC2c2ccccc2)s1 (stereo not drawn) , please.
≤ 5.00

Which pIC50 reading was recorded for the compound CN1CCN(C(=O)Cc2cccc(C3CC3(NS(=O)(=O)c3ccc(-c4cc(C(F)(F)F)on4)s3)C(=O)O)c2)CC1 (stereo not drawn) ?
> 6.00

What does the data say about its pIC50? Entry: O=C(O)C1(NS(=O)(=O)c2ccc(-c3ccc(Cl)cc3)s2)C2CCCc3ccccc3C21 (stereo not drawn)
> 7.00

# get_value(readout='pIC50', item= O=C(CCc1cccc(C2CC2(NS(=O)(=O)c2ccc(-c3ccc(Cl)cc3)s2)C(=O)O)c1)N1CCC(O)CC1 (stereo not drawn) )
> 7.00

# query: pIC50 of entry O=C(O)C1(NS(=O)(=O)c2ccc(-c3ccc(Cl)cc3)s2)CC1c1cccc(CCO)c1 (stereo not drawn)
> 7.00

# get_value(readout='pIC50', item= O=C(O)[C@]1(NS(=O)(=O)c2ccc(-c3nc(C(F)(F)F)cs3)s2)C[C@@H]1c1ccccc1 )
≤ 5.00

Consider the compound Cn1ccnc1CNc1cccc(C2CC2(NS(=O)(=O)c2ccc(-c3ccc(Cl)cc3)cc2)C(=O)O)c1 (stereo not drawn) and give its measured pIC50.
> 6.00

Given the entry CN1CCN(C(=O)CCc2cccc(C3CC3(NS(=O)(=O)c3ccc(-c4cc(C(F)(F)F)on4)s3)C(=O)O)c2)CC1 (stereo not drawn) , report its measured pIC50.
> 6.00

I would be grateful if you could share the reported pIC50 for N#Cc1ccc(-c2ccc(S(=O)(=O)N[C@@]3(C(=O)O)C[C@@H]3c3ccccc3)s2)s1 .
≤ 6.00

Quick one: pIC50 of O=C(O)[C@]1(NS(=O)(=O)c2ccc(-c3ccc(Cl)cc3)s2)C[C@@H]1c1ccccc1Br ?
> 7.00

Suppose we examine the compound O=C(O)C1(NS(=O)(=O)c2ccc(-c3ccc(Cl)cc3)s2)CC1c1cccc(NS(=O)(=O)C(F)(F)F)c1 (stereo not drawn) ; what pIC50 value has been reported?
> 7.00

What value of pIC50 has been recorded for this entry: O=C(O)C1(NS(=O)(=O)N2CCC(Oc3ccccc3)CC2)CC1c1ccccc1 (stereo not drawn)
≤ 5.00

Recorded pIC50 for O=C(O)C1(NS(=O)(=O)N2CCC(Oc3ccc(C(F)(F)F)cc3)CC2)CC1c1ccccc1 (stereo not drawn) , please?
≤ 5.00

// lookup pIC50 for O=C(O)C1(NS(=O)(=O)c2ccc(-c3ccc(Cl)cc3)s2)CC1C1CCCCC1 (stereo not drawn)
> 6.00

Give its pIC50 value. Item: O=C(O)c1ccccc1C1CC1(NS(=O)(=O)c1ccc(-c2ccc(Cl)cc2)s1)C(=O)O (stereo not drawn)
> 7.00

// pIC50 lookup, key: Cn1nc(-c2ccc(S(=O)(=O)NC3(C(=O)O)CC3c3ccccc3)s2)cc1C(F)(F)F (stereo not drawn)
≤ 5.00

Which pIC50 value belongs to O=C(Cc1cccc(C2CC2(NS(=O)(=O)c2ccc(-c3ccc(Cl)cc3)s2)C(=O)O)c1)N1CCOCC1 (stereo not drawn) ?
> 7.00

Need pIC50, item COC(=O)N1CC=C(c2ccc(S(=O)(=O)N[C@@]3(C(=O)O)C[C@@H]3c3ccccc3)s2)CC1
≤ 6.00

Recorded pIC50 for CN(C)C(=O)Cc1cccc(C2CC2(NS(=O)(=O)c2ccc(-c3ccc(Cl)cc3)s2)C(=O)O)c1 (stereo not drawn) , please?
> 7.00
